- TARGET OR TEST SYSTEM: His6-AspH315–758 (human aspartate/asparagine-β-hydroxylase, AspH) (Homo sapiens)
- Construct: N-Terminally His6-tagged human AspH315–758 (His6-AspH315–758) was produced in E. coli BL21 (DE3) cells; made in house; host or cells: E. coli BL21 (DE3), pET-28a(+) vector
- Sequence (Q12797 315-758): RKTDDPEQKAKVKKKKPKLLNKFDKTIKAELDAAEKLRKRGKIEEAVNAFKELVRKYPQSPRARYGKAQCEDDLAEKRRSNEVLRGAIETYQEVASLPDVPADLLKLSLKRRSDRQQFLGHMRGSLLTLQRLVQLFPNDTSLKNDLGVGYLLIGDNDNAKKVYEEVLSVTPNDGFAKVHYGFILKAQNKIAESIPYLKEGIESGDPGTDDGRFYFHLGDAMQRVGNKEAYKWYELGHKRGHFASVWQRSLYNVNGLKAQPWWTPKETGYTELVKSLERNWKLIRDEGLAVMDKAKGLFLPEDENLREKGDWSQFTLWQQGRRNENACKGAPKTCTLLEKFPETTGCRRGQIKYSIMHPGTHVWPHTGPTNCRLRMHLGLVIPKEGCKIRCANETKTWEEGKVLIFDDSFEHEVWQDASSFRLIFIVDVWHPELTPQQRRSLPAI
- PROTOCOL DESCRIPTION: SPE-MS AspH inhibition assay (LOPAC screen at fixed 20 μM and IC50 dose-response), hydroxylation of cyclic peptide hFX-CP101–119
- Type: biochemical
Would you kindly list Plate 1 (% inhibition) for each of these compounds?
Give bare numbers, in %.

Some solved cases for reference:
So what's the measured Plate 1 (% inhibition) for this one? `NCCCP(=O)(O)O` -4.94

So what's the measured Plate 1 (% inhibition) for this one? `C[C@H]1CCC/C=C/[C@@H]2C[C@H](O)C[C@H]2[C@H](O)/C=C/C(=O)O1` -8.79

So what's the measured Plate 1 (% inhibition) for this one? CN1CCC(c2c[nH]c3ccc(O)cc23)CC1.O=C(O)/C=C\C(=O)O [BRL 54443 maleate] 6.94

So what's the measured Plate 1 (% inhibition) for this one? O=C(Nc1cccnc1)N1CCC(Cc2cccc(Oc3ccc(C(F)(F)F)cn3)c2)CC1 [PF 3845 hydrate] -28.26

So what's the measured Plate 1 (% inhibition) for this one? CC1CCN=C(N)S1.Cl (racemic) [(±)-AMT hydrochloride] -3.04

So what's the measured Plate 1 (% inhibition) for this one? `CC[C@H](CO)Nc1nc(NCc2ccccc2)c2ncn(C(C)C)c2n1` -14.45

Below are 5 compounds. Give each one its Plate 1 (% inhibition).
1. CCC1(c2ccc(N)cc2)CCC(=O)NC1=O (racemic) [(±)-p-Aminoglutethimide]
2. Cl.NCCc1ccc(S(=O)(=O)F)cc1
3. O=P1(N(CCCl)CCCl)NCCCO1 (stereo not drawn) [Cyclophosphamide monohydrate]
4. C[N+](C)(C)CCO.[Br-] [Choline bromide]
5. COCCOc1cc2nc[nH]c(=O)c2cc1OCCOC

1: 3.03; 2: 3.52; 3: -7.77; 4: -5.68; 5: -13.90

Below are 7 compounds. Give each one its Plate 1 (% inhibition).
1. O=C(O)[C@@H]1CCN1
2. CCn1cnc2c(Nc3cccc(Cl)c3)nc(N[C@@H]3CCCC[C@@H]3N)nc21.Cl [CGP-74514A hydrochloride]
3. CC(C)(C)c1o[nH]c(=O)c1CC(N)C(=O)O (stereo not drawn)
4. CC(C)C[C@H]1C(=O)N2CCC[C@H]2[C@]2(O)O[C@](NC(=O)[C@@H]3C=C4c5cccc6[nH]c(Br)c(c56)C[C@H]4N(C)C3)(C(C)C)C(=O)N12.CS(=O)(=O)O [(+)-Bromocriptine methanesulfonate]
5. CCS(=O)(=O)Nc1cccc(C(=C2CCCCC2)c2cnc[nH]2)c1
6. NC(CP(=O)(O)O)C(=O)O (racemic) [(±)-2-Amino-3-phosphonopropionic acid]
7. NC1CCN(O)C1=O (racemic) [(±)-HA-966]

[-10.62, 76.98, -1.82, 18.18, -15.20, -7.14, -1.94]
